# credit: patent US20100291106A1

Reported values of HA (nM), 10% human serum, IC50 for individual entries
target-entity: human complement C3b protein (human, UniProt P01024 23-667; P01024 749-1663)
Sequence (P01024 23-667 P314L, chain 1 of 2): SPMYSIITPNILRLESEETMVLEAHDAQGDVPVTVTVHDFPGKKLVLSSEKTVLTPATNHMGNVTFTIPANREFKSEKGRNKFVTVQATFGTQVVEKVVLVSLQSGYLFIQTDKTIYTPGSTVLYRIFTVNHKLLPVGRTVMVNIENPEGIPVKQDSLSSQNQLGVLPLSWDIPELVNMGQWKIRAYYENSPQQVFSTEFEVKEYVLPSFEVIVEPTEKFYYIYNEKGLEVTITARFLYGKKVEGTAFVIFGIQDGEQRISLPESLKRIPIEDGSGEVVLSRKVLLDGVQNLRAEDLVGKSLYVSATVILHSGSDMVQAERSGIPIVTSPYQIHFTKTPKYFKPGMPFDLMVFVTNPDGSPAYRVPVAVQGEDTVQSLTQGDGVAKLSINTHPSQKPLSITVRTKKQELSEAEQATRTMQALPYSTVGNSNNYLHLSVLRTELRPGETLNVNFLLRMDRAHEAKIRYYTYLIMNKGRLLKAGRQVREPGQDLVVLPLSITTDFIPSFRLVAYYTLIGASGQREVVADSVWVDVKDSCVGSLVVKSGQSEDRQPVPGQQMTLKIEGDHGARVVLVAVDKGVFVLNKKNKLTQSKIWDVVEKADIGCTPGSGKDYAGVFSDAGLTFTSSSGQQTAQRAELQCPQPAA
Sequence (P01024 749-1663, chain 2 of 2): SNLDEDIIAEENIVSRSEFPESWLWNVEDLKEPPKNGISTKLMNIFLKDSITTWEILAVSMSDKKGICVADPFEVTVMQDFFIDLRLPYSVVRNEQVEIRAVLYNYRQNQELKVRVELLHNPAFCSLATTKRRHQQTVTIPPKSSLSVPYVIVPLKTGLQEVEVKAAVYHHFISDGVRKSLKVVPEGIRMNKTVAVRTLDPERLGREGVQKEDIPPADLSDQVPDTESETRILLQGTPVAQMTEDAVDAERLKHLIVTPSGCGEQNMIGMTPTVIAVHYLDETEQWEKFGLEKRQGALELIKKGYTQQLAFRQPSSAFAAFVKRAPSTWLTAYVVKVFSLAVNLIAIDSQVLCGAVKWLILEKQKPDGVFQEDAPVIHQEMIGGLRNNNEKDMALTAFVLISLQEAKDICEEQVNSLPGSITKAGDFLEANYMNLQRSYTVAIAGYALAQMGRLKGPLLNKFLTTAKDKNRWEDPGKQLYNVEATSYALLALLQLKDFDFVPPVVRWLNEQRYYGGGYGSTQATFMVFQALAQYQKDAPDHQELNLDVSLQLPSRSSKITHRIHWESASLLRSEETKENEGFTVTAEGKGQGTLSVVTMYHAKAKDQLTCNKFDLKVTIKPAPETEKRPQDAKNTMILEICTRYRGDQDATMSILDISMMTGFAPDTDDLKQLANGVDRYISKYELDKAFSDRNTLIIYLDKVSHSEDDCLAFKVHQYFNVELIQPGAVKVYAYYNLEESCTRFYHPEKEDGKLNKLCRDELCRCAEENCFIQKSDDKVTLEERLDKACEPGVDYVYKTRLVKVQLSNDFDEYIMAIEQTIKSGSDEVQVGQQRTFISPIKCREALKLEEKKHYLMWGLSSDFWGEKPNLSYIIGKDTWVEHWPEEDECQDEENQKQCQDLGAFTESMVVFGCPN
protocol-details: cell-based or functional assay

binder	HA (nM), 10% human serum, IC50
MOR09141 Fab (Fab, V domains shown, also called Fab 9141) VH: QVQLVQSGAEVKKPGSSVKVSCKASGGTFSSYTFSWVRQAPGQGLEWMGNILPIFGDANYAQKFQGRVTITADESTSTAYMELSSLRSEDTAVYYCARNKGAFYYMSTYPSLDVWGQGTLVTVSS VL: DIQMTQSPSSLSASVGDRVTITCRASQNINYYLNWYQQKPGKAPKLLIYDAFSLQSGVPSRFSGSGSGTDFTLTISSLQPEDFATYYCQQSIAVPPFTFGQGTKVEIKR	27
MOR09397 Fab (Fab, V domains shown, also called Fab 9397) VH: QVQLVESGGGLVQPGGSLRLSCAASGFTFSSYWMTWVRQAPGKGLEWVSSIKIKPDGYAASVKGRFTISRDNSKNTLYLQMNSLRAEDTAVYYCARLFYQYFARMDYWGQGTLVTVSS VL: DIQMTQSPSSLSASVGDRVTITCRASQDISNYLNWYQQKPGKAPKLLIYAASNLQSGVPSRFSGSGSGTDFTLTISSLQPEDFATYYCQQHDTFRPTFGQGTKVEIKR	35
MOR09124 Fab (Fab, V domains shown, HCDR2-matured derivative of parental MOR08305) VH: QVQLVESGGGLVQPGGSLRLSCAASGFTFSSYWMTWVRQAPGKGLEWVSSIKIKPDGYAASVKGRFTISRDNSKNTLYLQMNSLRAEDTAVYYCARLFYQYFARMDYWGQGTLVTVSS VL: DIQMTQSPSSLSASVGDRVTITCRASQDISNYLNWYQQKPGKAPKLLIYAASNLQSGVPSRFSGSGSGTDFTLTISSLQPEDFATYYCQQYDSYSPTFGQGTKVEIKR	44
MOR09423 Fab (Fab, V domains shown, also called Fab 9423) VH: QVQLVQSGAEVKKPGASVKVSCKASGYTFTGYYINWVRQAPGQGLEWMGIISPNQGTTGYAQKFQGRVTMTRDTSISTAYMELSSLRSEDTAVYYCARGNYDHLDYWGQGTLVTVSS VL: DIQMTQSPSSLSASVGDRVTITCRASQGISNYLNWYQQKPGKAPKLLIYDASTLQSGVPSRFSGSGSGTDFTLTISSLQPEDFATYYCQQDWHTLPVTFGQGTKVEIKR	48
MOR09398 Fab (Fab, V domains shown, also called Fab 9398) VH: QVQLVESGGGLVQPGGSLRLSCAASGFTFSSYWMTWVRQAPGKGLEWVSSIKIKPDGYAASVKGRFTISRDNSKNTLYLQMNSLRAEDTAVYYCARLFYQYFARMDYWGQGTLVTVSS VL: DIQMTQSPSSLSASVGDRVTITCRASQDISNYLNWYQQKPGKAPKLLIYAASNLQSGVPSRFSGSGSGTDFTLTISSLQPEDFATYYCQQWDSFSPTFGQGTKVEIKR	45
MOR09136 Fab (Fab, V domains shown, also called Fab 9136) VH: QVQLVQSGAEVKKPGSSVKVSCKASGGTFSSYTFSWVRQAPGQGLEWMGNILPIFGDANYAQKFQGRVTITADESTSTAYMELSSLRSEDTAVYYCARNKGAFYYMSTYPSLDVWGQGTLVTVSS VL: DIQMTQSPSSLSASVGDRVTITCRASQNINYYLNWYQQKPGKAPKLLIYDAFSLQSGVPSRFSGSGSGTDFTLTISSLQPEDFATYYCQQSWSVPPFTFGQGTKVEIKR	32
